In this section, each of the compounds is paired with its reported composite z-score.
tested on: PRMT1 (protein arginine N-methyltransferase 1); assay: PRMT1 binders on small-molecule microarrays, primary screen, biochemical, small-molecule microarray, 635 nm fluorescence (AID 1088); conditions: small-molecule microarray binding, higher = more signal
Write the value as a bare number.

Prompt line: Given Cc1cc(C)cc(N2C(=O)CSC2c2cccc([N+](=O)[O-])c2)c1 (stereo unspecified) , state its recorded composite z-score.
Response line: 1.56

Prompt line: Fill in: composite z-score of COCC1=C2[C@@H](CCc3ccccc3)OB(O)C[C@@H]2[C@@H]2C(=O)C=CC(=O)[C@@H]2C1 is ___
Response line: 1.57

Prompt line: Please look up its composite z-score: C=C(/C(=C/C[C@H](OC(C)=O)c1cccc(OCCO)c1)c1cnc2ccccc2c1)C(C)C
Response line: 0.684

Prompt line: Given the compound CN1C(=O)C2C=CC(C(O)c3ccccn3)N(N(c3ccccc3)c3ccccc3)C2C1=O (stereo unspecified) , what is its reported composite z-score?
Response line: 0.412

Prompt line: I'd like to know its composite z-score. The compound in question is COCCOC(=O)N1C(=O)[C@@]2(c3ccccc31)[C@H](C(=O)N1CCN(c3ncccn3)CC1)[C@H]1C(=O)O[C@H](c3ccccc3)[C@H](c3ccccc3)N1[C@@H]2c1ccc(O)cc1
Response line: 1.55

More entries:
Prompt line: I would be grateful if you could share the reported composite z-score for COCCCNC(=O)[C@]1(CCS(=O)(=O)c2ccccc2)N=C(c2ccc(OCCCO)cc2)O[C@@H]1c1ccccc1CN=[N+]=[N-] .
Response line: 1.55

Prompt line: Report composite z-score for O[C@@H](Cc1ccccc1)[C@@H](/C=C/C1CC1)N(CC#Cc1ccccc1)Cc1cccc(Cl)c1 please.
Response line: -0.235

Prompt line: What value of measured composite z-score is listed for CC(C)N1C(=O)C[C@@](C(=O)NCCCN(C)C)(c2ccc([N+](=O)[O-])cc2)[C@H]1c1ccc(CO)cc1 ?
Response line: -0.139

Prompt line: What value of composite z-score has been reported for the following compound? C=C(COC)/C(=C/C[C@H](OC(C)=O)c1ccc(OCCO)cc1)c1cc(C(=O)OC)ccc1OC
Response line: 1.53

Prompt line: # query: composite z-score of entry C=CC[C@@]1(C(=O)N2CCOCC2)N=C(c2ccc(OCCCO)cc2)O[C@@H]1c1ccccc1CN=[N+]=[N-]
Response line: 1.56

Prompt line: GET /values?readout=composite z-score&item= CC(CO)N1C(=O)[C@@H]2[C@H]3C(=O)OCC=C[C@H]3OC23C=CCN(Cc2ccccc2)C(=O)[C@@H]13 (stereo partly specified)
Response line: -1.28

Prompt line: I am curious: what composite z-score value has been reported for CC(C)C[C@@H]1NC(=O)[C@@H]2C[C@H](C(=O)NCCCCCN)[C@H](c3ccc(O)cc3)N2C1=O ?
Response line: 1.57

Prompt line: What does the data say about its composite z-score? Entry: CCOC(=O)C1=CC[C@@H](c2cccc(Cl)c2)N(S(=O)(=O)c2ccc(C)cc2)C1
Response line: 0.335

Prompt line: Sample COc1ccc(C#Cc2ccc3c(c2)[C@]2(C(=O)N3)[C@H](c3ccc(O)cc3)N3[C@H](c4ccccc4)[C@H](c4ccccc4)OC(=O)[C@H]3[C@@H]2C(=O)O)cc1 — what was its composite z-score?
Response line: 0.525

Prompt line: I'd like to know its composite z-score. The compound in question is NC(=O)N1C(=O)C2C(C1=O)C1C=C(CCCO)C2C(c2cccs2)N1Cc1cccc(OC(F)(F)F)c1 (stereo unspecified)
Response line: 1.2

Prompt line: # lookup: composite z-score of O=C1OCCC/C=C\[C@H]2OC34C=CCN(CCN5CCOCC5)C(=O)[C@H]3N(CCCCCCO)C(=O)[C@@H]4C12 (stereo partly specified)
Response line: 0.733
